test: Pharmacokinetics of decitabine in IVAP rabbit model; type: in vivo, rabbits; details: rabbit, plasma (systemic), 2.5 mg/kg, IC 2.5 mg/kg; read-out: systemic Bioavailability, Mean
outcome.measure: bioavailability (%)
Write it as a number; the unit % goes unstated.

Could you tell me which bioavailability is on file for Nc1ncn([C@H]2C[C@H](O)[C@@H](CO)O2)c(=O)n1 ? 34.3

====

assay: Pharmacokinetics of decitabine in IVAP rabbit model; assay type: in vivo, rabbits; conditions: IV 1.5 mg/kg, 15 min
outcome.measure: concentration PV, Mean (µg/mL)
Write it as a number; the unit µg/mL goes unstated.

Could you tell me which concentration PV, Mean is on file for Nc1ncn([C@H]2C[C@H](O)[C@@H](CO)O2)c(=O)n1 ? 0.35

====

experiment: Pharmacokinetics of decitabine in IVAP rabbit model; type: in vivo, rabbits; settings: IV 1.5 mg/kg, 180 min
outcome.measure: concentration PV, Mean (µg/mL)
Write it as a number; the unit µg/mL goes unstated.

Could you tell me which concentration PV, Mean is on file for Nc1ncn([C@H]2C[C@H](O)[C@@H](CO)O2)c(=O)n1 ? 0.022

====

assay: Pharmacokinetics of decitabine in IVAP rabbit model; type: in vivo, rabbits; conditions: rabbit, plasma, iv, IV (overall); read-out: Volume (Vz)
outcome.measure: Vd (L/kg)
Write it as a number; the unit L/kg goes unstated.

Could you tell me which Vd is on file for Nc1ncn([C@H]2C[C@H](O)[C@@H](CO)O2)c(=O)n1 ? 2.41

====

test: Pharmacokinetics of decitabine in IVAP rabbit model; type: in vivo, rabbits; conditions: rabbit, plasma, iv, 1.5 mg/kg, 1.5 mg/kg IV; read-out: Mean Residence Time
outcome.measure: MRT (min)
Write it as a number; the unit min goes unstated.

Could you tell me which MRT is on file for Nc1ncn([C@H]2C[C@H](O)[C@@H](CO)O2)c(=O)n1 [decitabine, 5-aza-2′-deoxycytidine] ? 49.8
